# Lookup of reported pIC50 keyed by entry
- system.tested: KRas G12D (Homo sapiens, UniProt P01116, G12D);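 further: TR-FRET displacement binding assay on KRas, read after a one-hour incubation at room temperature, IC50 fitted from percent-of-control values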
- Sequence (P01116 1-169 isoform P01116-2 G12D): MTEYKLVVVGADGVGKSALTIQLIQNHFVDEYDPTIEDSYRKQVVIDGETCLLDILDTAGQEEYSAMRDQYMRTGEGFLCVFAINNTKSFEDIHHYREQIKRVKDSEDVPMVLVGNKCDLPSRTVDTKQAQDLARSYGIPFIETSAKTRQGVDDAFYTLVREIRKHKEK
- measurement.description: biochemical
Conceptually, pIC50 converts a concentration in mol/L into minus its log10.

{"molecule": "Fc1c(-c2cccc3cccc(Cl)c23)ncc2c(N3CCCC(n4cccn4)C3)nc(OCC34CCCN3CCC4)nc12 (centres unmarked)", "numeric.result": 4.99}
{"molecule": "O=C(c1cc2n(n1)CCCN(c1nc(OCC34CCCN3CCC4)nc3c(F)c(-c4cccc5cccc(F)c45)ncc13)C2)N1CCC1", "numeric.result": 6.12}
{"molecule": "OC1CN(c2nc(OCC34CCCN3CCC4)nc3c(F)c(-c4cccc5cccc(F)c45)ncc23)Cc2ccnn2C1 (centres unmarked)", "numeric.result": 5.21}
{"molecule": "CCc1c(F)ccc2cc(O)cc(-c3ncc4c(N(C)CC5CNS(=O)(=O)N5)nc(OC[C@@]56CCCN5C[C@H](F)C6)nc4c3F)c12 (some centres unmarked)", "numeric.result": 8.10}
{"molecule": "CCc1c(F)ccc2cc(O)cc(-c3ncc4c(N5C[C@@H]6C(=O)NNC(=O)[C@@H]6C5)nc(OC[C@@]56CCCN5C[C@H](F)C6)nc4c3F)c12", "numeric.result": 6.70}
{"molecule": "NC(=O)C1CCCN(c2nc(OCC34CCCN3CCC4)nc3c(F)c(-c4cccc5cccc(F)c45)ncc23)C1 (centres unmarked)", "numeric.result": 5.16}

Please examine the following record next.
query: # lookup: KRas G12D (Homo sapiens, UniProt P01116, G12D) pIC50, key = CCc1c(F)ccc2cc(O)cc(-c3ncc4c(N5CCOC6(CCS(=O)(=O)CC6)C5)nc(OC[C@@]56CCCN5C[C@H](F)C6)nc4c3F)c12
result: 6.20

* * *

- system.tested: KRas G12V (Homo sapiens, UniProt P01116, G12V)
- Sequence (P01116 1-169 isoform P01116-2 G12V): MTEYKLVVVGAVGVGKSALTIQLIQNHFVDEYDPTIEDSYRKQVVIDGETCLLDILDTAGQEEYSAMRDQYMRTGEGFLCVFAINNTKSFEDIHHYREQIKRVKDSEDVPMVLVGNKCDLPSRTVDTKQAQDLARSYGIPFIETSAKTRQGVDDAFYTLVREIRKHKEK
- measurement.description: biochemical
quantity.name: log10 IC50 (log10 of the value in nM)
The base-10 logarithm of IC50, taken with IC50 in nM, is what appears here.

{"compound": "CCc1c(F)ccc2cc(O)cc(-c3ncc4c(N5CCCC6(C5)CS(=O)(=O)C6)nc(OC[C@@]56CCCN5C[C@H](F)C6)nc4c3F)c12", "log10 IC50": 0.60}
{"compound": "CCc1cccc2cccc(-c3ncc4c(N5CCCC6(CNC(=O)N6)C5)nc(OCC56CCCN5CCC6)nc4c3F)c12 (stereo not shown)", "log10 IC50": 0.95}
{"compound": "CCc1cccc2cccc(-c3ncc4c(N5CCCC6(CC(=O)N6)C5)nc(OCC56CCCN5CCC6)nc4c3F)c12 (stereo not shown)", "log10 IC50": 1.83}
{"compound": "C#Cc1c(F)ccc2cccc(-c3ncc4c(N5CCC[C@@](C)(O)C5)nc(OC[C@@]56CCCN5C[C@H](F)C6)nc4c3F)c12", "log10 IC50": 1.54}
{"compound": "O=C1CC(CNc2nc(OCC34CCCN3CCC4)nc3c(F)c(-c4cccc5cccc(F)c45)ncc23)CN1 (stereo not shown)", "log10 IC50": 3.29}
{"compound": "C#Cc1c(F)ccc2cc(O)cc(-c3ncc4c(N5CCCC6(CNS(=O)(=O)N6)C5)nc(OC[C@@]56CCCN5C[C@H](F)C6)nc4c3F)c12 (stereo partly shown)", "log10 IC50": 0.48}

query: Check KRas G12V (Homo sapiens, UniProt P01116, G12V) data and give log10 IC50 for CCc1c(F)ccc2cc(O)cc(-c3ncc4c(NCCC5CNC(=O)C5)nc(OC[C@@]56CCCN5C[C@H](F)C6)nc4c3F)c12 (stereo partly shown) .
result: 0.48

query: Lab note: record log10 IC50 of O=C1CCN(c2nc(OCC34CCCN3CCC4)nc3c(F)c(-c4cccc5cccc(F)c45)ncc23)CCCN1 tested on KRas G12V (Homo sapiens, UniProt P01116, G12V).
result: 4.07

* * *

- system.tested: KRas G12R (Homo sapiens, UniProt P01116, G12R);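 further: TR-FRET displacement assay of compound binding to KRas, read after one hour at room temperature, potency from a four-parameter fit of percent-of-control values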
- Sequence (P01116 1-169 isoform P01116-2 G12R): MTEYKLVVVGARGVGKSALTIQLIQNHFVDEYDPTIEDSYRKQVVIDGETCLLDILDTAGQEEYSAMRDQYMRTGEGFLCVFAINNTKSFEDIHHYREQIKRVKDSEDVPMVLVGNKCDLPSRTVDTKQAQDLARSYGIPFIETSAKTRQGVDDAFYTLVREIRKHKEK
- measurement.description: biochemical
quantity.name: IC50

{"compound": "OCc1cc2n(n1)CCCN(c1nc(OCC34CCCN3CCC4)nc3c(F)c(-c4cccc5cccc(F)c45)ncc13)C2", "IC50": "2.61 µM"}
{"compound": "O=C1CC2(CCCN(c3nc(OCC45CCCN4CCC5)nc4c(F)c(-c5cccc6cccc(F)c56)ncc34)C2)CN1 (stereo not shown)", "IC50": "7.39 µM"}
{"compound": "CCc1c(F)ccc2cc(O)cc(-c3ncc4c(Nc5cnn(-c6ccncc6)c5)nc(OC[C@@]56CCCN5C[C@H](F)C6)nc4c3F)c12", "IC50": "0.009 µM"}
{"compound": "CCc1c(F)ccc2cccc(-c3ncc4c(N5CCCC6(CNC(=O)C6)C5)nc(OC[C@@]56CCCN5C[C@H](F)C6)nc4c3F)c12 (stereo partly shown)", "IC50": "0.093 µM"}
{"compound": "OC1CCCN(c2nc(OCC34CCCN3CCC4)nc3c(F)c(-c4cccc5cccc(F)c45)ncc23)CC1 (stereo not shown) [Example 129]", "IC50": "4.43 µM"}

query: Answer with reported IC50 of CC1CC(O)CCN(c2nc(OCC34CCCN3CCC4)nc3c(F)c(-c4cccc5cccc(F)c45)ncc23)C1 (stereo not shown)
result: 6.27 µM

query: Look up IC50 of CCc1c(F)ccc2cc(O)cc(-c3ncc4c(N5CCCn6nc(C(=O)NCCO)cc6C5)nc(OC[C@@]56CCCN5C[C@H](F)C6)nc4c3F)c12 and report it.
result: ≤ 0.002 µM

query: Tell us which IC50 value is on record for CCc1c(F)ccc2cc(O)cc(-c3ncc4c(NCc5n[nH]cc5C(N)=O)nc(OC[C@@]56CCCN5C[C@H](F)C6)nc4c3F)c12
result: 0.003 µM

query: Could you please provide reported IC50 for CN(C)C(=O)c1cc2n(n1)CCCN(c1nc(OC[C@@]34CCCN3C[C@H](F)C4)nc3c(F)c(-c4cc(O)cc5ccc(F)c(Br)c45)ncc13)C2 ? Thanks!
result: ≤ 0.002 µM

query: State, in one line, measured IC50 of CN(Cc1cccnc1N)c1nc(OCC23CCCN2CCC3)nc2c(F)c(-c3cccc4cccc(F)c34)ncc12
result: 0.65 µM

query: Supply reported IC50 belonging to this compound: Fc1c(-c2cccc3cccc(F)c23)ncc2c(N3CCCC4(CCC(F)C4)C3)nc(OCC34CCCN3CCC4)nc12 (stereo not shown)
result: 24.1 µM

query: Supply measured IC50 of O=C(c1cc2n(n1)CCCN(c1nc(OCC34CCCN3CCC4)nc3c(F)c(-c4cccc5cccc(F)c45)ncc13)C2)N1CCOCC1 in your reply.
result: 1.21 µM

query: State its IC50 for this compound: CCc1c(F)ccc2cc(O)cc(-c3ncc4c(N5CC6C(=O)NC(=O)C6C5)nc(OC[C@@]56CCCN5C[C@H](F)C6)nc4c3F)c12 (stereo partly shown)
result: ≤ 0.002 µM

* * *

IC50: recorded values
- system.tested: KRas G12S (Homo sapiens, UniProt P01116, G12S);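 further: TR-FRET displacement binding to KRas, read after one hour incubation at room temperature, IC50 from four-parameter fit of percent of control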
- Sequence (P01116 1-169 isoform P01116-2 G12S): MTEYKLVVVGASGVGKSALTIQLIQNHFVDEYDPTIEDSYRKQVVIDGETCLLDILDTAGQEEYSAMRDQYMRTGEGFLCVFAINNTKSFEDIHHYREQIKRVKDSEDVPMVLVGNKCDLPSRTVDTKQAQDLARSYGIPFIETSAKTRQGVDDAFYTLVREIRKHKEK
- measurement.description: biochemical
Number only, in µM; omit the unit.

query: Note IC50 for the compound shown: CCc1cccc2cccc(-c3ncc4c(N5CCCC6(CNC(=O)N6)C5)nc(OCC56CCCN5CCC6)nc4c3F)c12 (stereo not shown)
result: 0.012

query: Provide IC50 value for the following compound: Fc1c(-c2cccc3cccc(F)c23)ncc2c(N3CCCC(c4nc[nH]n4)C3)nc(OCC34CCCN3CCC4)nc12 (stereo not shown)
result: 1.45

query: Give reported IC50 value for CCc1cccc2cccc(-c3ncc4c(NCc5c[nH]c6ncccc56)nc(OCC56CCCN5CCC6)nc4c3F)c12
result: 0.016

* * *

- system.tested: KRas G12V (Homo sapiens, UniProt P01116, G12V)
- measurement.description: biochemical
quantity.name: pIC50
Lab note — pIC50 values are minus log10 of concentrations in M.

{"molecule": "CCc1c(F)ccc2cc(O)cc(-c3ncc4c(N5CCC[C@](C)(O)C5)nc(OC[C@@H]5C[C@@H](OC(=O)NC)CN5C)nc4c3F)c12 [Example 9]", "system.tested": "KRas G12V (Homo sapiens, UniProt P01116, G12V)", "quantity.name": "pIC50", "numeric.result": 6.48}

query: Return value of pIC50 for input O=C1CC2(CCN(c3nc(OCC45CCCN4CCC5)nc4c(F)c(-c5cccc6cccc(F)c56)ncc34)CC2)N1 [Example 77] , no commentary.
result: 5.87

* * *

Form field: pIC50 (one value per entry).
- system.tested: KRas G12V (Homo sapiens, UniProt P01116, G12V);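 further: KRas binding measured by TR-FRET displacement at room temperature, IC50 fitted from percent of control values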
- measurement.description: biochemical
Just so you know, pIC50 here is -log10 of the concentration in molar units; reply with that number alone.

{"compound": "Cc1cc2[nH]ncc2c(-c2ncc3c(N4CCCC5(CC(=O)N5)C4)nc(OCC45CCCN4CCC5)nc3c2F)c1C (stereo not drawn)", "pIC50": 6.89}

Kindly review the next compound as well.
query: Provide only the value of recorded pIC50 for O=C1NC(=O)C2(COCCN(c3nc(OCC45CCCN4CCC5)nc4c(F)c(-c5cccc6cccc(F)c56)ncc34)C2)N1 (stereo not drawn)
result: 6.89
